# Kinetics koff annotations
# Test Target: IGF2 (Homo sapiens, UniProt P01344)
# Sequence (P01344 25-91): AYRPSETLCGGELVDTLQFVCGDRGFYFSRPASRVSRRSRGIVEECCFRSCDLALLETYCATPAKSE
# Experimental Protocol: SPR (Biacore T200) of recombinant IGF2R domain 11 mutants on immobilised biotinylated IGF2
# Type: binding
# Parameters: purchased GroPep
# Stated Conditions: Table 4; MES-EP pH 6.5
Recorded Endpoint: Kinetics koff

INSERT INTO assay_data (molecule, recorded_endpoint, recorded_measurement) VALUES
  ('AB3 Q1569R P1597H S1602H G1603K: domain 11 AB3 + Q1569R, P1597H, S1602H, G1603K (protein) MKSNEHDDCQVTNPSTGHLFDLSSLSGRAGFTAAYSKSGVVYMSICGENENCPPGVGACFGRTRISVGKANKRLRYVDQVLQLVYKDGSHCPSKHKLSYKSVISFVCRPEAGPTNRPMLISLDKQTCTLFFSWHTPLACEQATECSV', 'Kinetics koff', '0.0087 s⁻¹'),
  ('AB5 P1597H S1602H: domain 11 AB5 + P1597H, S1602H (protein) MKSNEHDDCQVTNPSTGHLFDLSSLSGRAGFTAAYAKGWGVYMSICGENENCPPGVGACFGQTRISVGKANKRLRYVDQVLQLVYKDGSHCPSKHGLSYKSVISFVCRPEAGPTNRPMLISLDKQTCTLFFSWHTPLACEQATECSV', 'Kinetics koff', '0.0029 s⁻¹'),
  ('AB5: IGF2R domain 11 with five AB loop mutations S1543A, E1544K, K1545G, G1546W, L1547G (YAKGWG) (protein) MKSNEHDDCQVTNPSTGHLFDLSSLSGRAGFTAAYAKGWGVYMSICGENENCPPGVGACFGQTRISVGKANKRLRYVDQVLQLVYKDGSPCPSKSGLSYKSVISFVCRPEAGPTNRPMLISLDKQTCTLFFSWHTPLACEQATECSV', 'Kinetics koff', '0.0180 s⁻¹');
